study_target: CCR8 (Homo sapiens, UniProt P51685)
Sequence (P51685 whole entry, the tested form may be a part): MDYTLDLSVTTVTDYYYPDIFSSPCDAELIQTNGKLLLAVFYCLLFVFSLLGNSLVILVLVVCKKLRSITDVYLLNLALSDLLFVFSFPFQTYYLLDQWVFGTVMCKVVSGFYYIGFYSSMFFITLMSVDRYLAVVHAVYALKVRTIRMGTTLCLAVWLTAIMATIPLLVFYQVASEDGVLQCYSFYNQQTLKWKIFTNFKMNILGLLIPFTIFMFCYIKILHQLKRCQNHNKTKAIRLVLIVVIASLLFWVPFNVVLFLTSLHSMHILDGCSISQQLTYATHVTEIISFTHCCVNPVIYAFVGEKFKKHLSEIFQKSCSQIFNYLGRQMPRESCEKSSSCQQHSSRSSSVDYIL
assay_text: Tango assay (Tango-CCR8-Gal4-CHO-K1 cells, CCL1-stimulated, ONE-Glo luminescence)
applied_conditions: Tango Assay IC50, Inhibition of CCR8 Tango cell in vitro
endpoint_label: IC50

Cc1ccccc1C(=O)Nc1ccc(S(=O)(=O)Nc2ccc3c(c2)CN(CCCN(C)C)C3)c2ccccc12 = > 10 µM

Query `CN1CCCN(C(=O)C23CC(NS(=O)(=O)c4ccc5ccccc5c4)(C2)C3)CC1` yields IC50 of > 10 µM

Query `CCN(C)C(=O)C12CC(NS(=O)(=O)c3ccc(NC(=O)c4ccccc4C)c4ccccc34)(C1)C2` yields IC50 of > 10 µM
